Tested on: NCI-H522 lung
Test: NCI tumour cell line growth inhibition, 48 h
Assign TGI to each entry below.

Please review the entries below; each comes with its answer.
COc1cc(NN=C(c2ccc(O)cc2)c2ccc(O)cc2)c([N+](=O)[O-])cc1[N+](=O)[O-] :: 29.9 µM
CCOC(=O)/C=C1\SC(=Nc2ccc(C#N)cc2)N(CCN2C(=O)/C(=C/C(=O)OCC)SC2=Nc2ccc(C#N)cc2)C1=O :: 24.3 µM
COc1cc(/C=C2\N=C(c3ccccc3)N(C3Nc4cc5c(cc4S3)NC(N3C(=O)/C(=C/c4cc(OC)c(OC)c(OC)c4)N=C3c3ccccc3)S5)C2=O)cc(OC)c1OC (stereo not given) :: > 100 µM
C=C(CN(CC(=C)C(=O)c1ccccc1)C(C)(C)C)C(=O)c1ccccc1 :: 29.4 µM

Problem: What value of measured TGI is listed for Nc1nc2c(c3ncccc13)C(c1cccc(Cl)c1)Cc1ncccc1-2 (stereo not given) ?
Solution: 2.82 µM
